measurement-description: in vivo
setup-conditions: dog, po
property-name: Cmax (ng/mL)
Value expressed in ng/mL; do not type the unit.

Query: Using the record for CC(C)NCC(O)COc1cccc2ccccc12 (stereo not shown) , report its Cmax.
Reply: 3

----------
measurement-description: in vivo
setup-conditions: dog, iv
property-name: Tmax (min)
// units = min; emit number, no label

Query: # input molecule: CC(C)NCC(O)COc1cccc2ccccc12 (stereo not shown) ; wanted: its Tmax
Reply: 3

----------
measurement-description: in vivo
setup-conditions: dog, po
property-name: Tmax (h)
Field: numeric (h). Do not append units.

Query: Need Tmax, item CC(C)NCC(O)COc1cccc2ccccc12 (stereo not shown)
Reply: 2

----------
measurement-description: in vivo
setup-conditions: dog, po
property-name: bioavailability at 8 h (%)
Report the figure in % without appending any unit label.

Query: Look up bioavailability at 8 h: CC(C)NCC(O)COc1cccc2ccccc12 (stereo not shown)
Reply: 4

Hello, the source for this data is patent US5455286A, in case you need it.
